B1: CPXM2 (parent)
chain: TASTKNCMVGYDMGATRCDFTLSK

# Variants of: B1
# test_details: protein stability index of a GFP-peptide fusion (GPS, HEK-293T) (PSI 1-6); higher = more stable;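 further: lentivirally expressed fusions sorted by FACS into six bins by GFP to DsRed ratio, PSI derived from sequencing read proportions per bin multiplied by bin number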
# condition: c terminus: a fixed tail appended
reported_endpoint: protein stability index
Give the value as a plain number.

Lab book: protein stability index of T1A noted as 2.66

Lab book: protein stability index of L22F noted as 2.12

Lab book: protein stability index of K5I noted as 2.04

***
Lab book: protein stability index of K5Y noted as 1.72

Lab book: protein stability index of A15W noted as 2.71

Lab book: protein stability index of T1Q noted as 2.52

meta.source: the supplement of paper PMC10567573
